Target: Ba/F3 EGFR-Del19/T790M/C797S (Homo sapiens, UniProt P00533, T790M/C797S, cells depend on it, form not given)
Sequence (P00533 with tags, fused parts or gaps DEL746-750/T790M/C797S, form open): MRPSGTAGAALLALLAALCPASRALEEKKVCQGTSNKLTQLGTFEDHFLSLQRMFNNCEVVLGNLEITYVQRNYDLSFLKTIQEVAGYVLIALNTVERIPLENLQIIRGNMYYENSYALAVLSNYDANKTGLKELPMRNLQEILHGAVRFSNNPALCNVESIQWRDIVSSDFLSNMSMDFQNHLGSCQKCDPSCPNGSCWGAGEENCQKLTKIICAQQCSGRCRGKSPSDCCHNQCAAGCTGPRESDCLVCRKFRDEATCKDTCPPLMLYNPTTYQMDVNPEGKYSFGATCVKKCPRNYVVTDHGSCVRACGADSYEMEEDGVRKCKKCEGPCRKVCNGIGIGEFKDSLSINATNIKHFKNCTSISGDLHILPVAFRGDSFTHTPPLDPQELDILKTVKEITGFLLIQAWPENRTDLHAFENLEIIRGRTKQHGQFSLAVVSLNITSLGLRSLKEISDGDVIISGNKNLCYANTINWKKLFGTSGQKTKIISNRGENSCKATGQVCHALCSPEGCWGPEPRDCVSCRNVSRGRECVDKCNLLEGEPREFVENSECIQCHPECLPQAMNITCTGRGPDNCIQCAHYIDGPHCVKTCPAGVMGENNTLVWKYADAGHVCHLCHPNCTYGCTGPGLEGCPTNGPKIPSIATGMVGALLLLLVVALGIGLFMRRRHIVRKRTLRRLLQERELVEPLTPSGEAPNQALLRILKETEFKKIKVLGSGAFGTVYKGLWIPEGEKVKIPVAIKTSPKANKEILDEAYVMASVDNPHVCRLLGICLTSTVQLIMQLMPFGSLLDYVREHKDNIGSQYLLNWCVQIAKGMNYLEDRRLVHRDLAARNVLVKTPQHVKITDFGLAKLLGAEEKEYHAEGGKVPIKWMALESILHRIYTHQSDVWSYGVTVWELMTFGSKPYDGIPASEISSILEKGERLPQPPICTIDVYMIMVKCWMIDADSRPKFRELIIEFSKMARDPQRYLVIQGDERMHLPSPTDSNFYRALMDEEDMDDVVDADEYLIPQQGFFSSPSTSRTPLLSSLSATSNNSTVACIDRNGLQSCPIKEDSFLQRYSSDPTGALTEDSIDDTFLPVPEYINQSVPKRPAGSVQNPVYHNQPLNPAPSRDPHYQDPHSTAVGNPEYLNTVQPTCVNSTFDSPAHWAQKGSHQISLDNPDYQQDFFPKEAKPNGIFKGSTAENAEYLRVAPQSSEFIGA
Assay: Ba/F3 viability assay (CellTiter-Glo), DTC
Type: cell-based
Conditions: anti-proliferation, read-out: BaF3 DTC IC50
reportedProperty: GI50

Q. If you can, please state the reported GI50 value of `COCCN(C)Cc1ccc(-c2nn3c4cc(ncc24)Nc2ccnc(n2)-c2cnn(C)c2OCC[C@@H]3C)n1C` .
A. < 10 nM

Q. Proceed to CC1CCOc2c(cnn2C)-c2nccc(n2)Nc2cc3c(cn2)c(-c2cc(CN4CCN(C)CC4)cn2C)nn31 (stereo not shown)
A. 10 to 100 nM

Q. Then what about the compound `C[C@H]1CCOc2c(cnn2C)-c2nccc(n2)Nc2cc3c(cn2)c(-c2ccc(CN(C)CCCF)n2C)nn31` ?
A. < 10 nM

Q. Next compound up: CCn1ccc(-c2nn3c4cc(ncc24)Nc2ccnc(n2)-c2cnn(C)c2OCCCC3C)n1 (stereo not shown)
A. < 10 nM
